Kindly state remaining activity at 1 µM for each of the entries shown.
ASSAY TARGET: Hmdm2 (Homo sapiens)
Sequence (Q00987 whole entry): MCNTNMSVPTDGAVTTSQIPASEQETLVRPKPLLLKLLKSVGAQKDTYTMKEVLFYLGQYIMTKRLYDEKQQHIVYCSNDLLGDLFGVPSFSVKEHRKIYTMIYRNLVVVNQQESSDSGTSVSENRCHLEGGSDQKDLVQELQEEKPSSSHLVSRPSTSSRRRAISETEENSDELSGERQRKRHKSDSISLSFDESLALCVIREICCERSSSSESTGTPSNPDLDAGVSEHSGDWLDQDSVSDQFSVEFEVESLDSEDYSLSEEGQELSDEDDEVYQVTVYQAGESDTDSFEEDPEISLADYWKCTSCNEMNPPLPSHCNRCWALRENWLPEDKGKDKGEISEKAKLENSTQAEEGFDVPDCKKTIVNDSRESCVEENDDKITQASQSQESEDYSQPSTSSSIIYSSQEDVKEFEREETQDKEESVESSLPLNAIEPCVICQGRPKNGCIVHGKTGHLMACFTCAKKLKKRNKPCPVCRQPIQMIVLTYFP
PROTOCOL NOTES: Selectivity (% A in 1 μM), ubiquitin ligase activity of Hmdm2
Format: biochemical
CONDITIONS: read-out: Selectivity (% A* in 1 μM) Hmdm2
Write down the numeric answer in % and omit the unit.

Reported remaining activity at 1 µM for Cc1c(C(=O)/C=C/c2ccccc2)c2cc(O)ccc2n1C [Compound 75] was 113

Reported remaining activity at 1 µM for O=C(O)COc1ccc2c(c1)oc(=O)c1ccccc12 [Compound 85] was 94

Reported remaining activity at 1 µM for Cc1ccc2nsnc2c1/N=C/c1c(O)ccc2ccccc12 [Compound 53] was 125

Reported remaining activity at 1 µM for C=CCN1C(=O)NC(=O)/C(=C\c2ccccc2)C1=O [Compound 2] was 108

Reported remaining activity at 1 µM for O=c1/c(=C/c2ccc(N3CCOCC3)cc2)sc2nc3ccccc3n12 [Compound 32] was 141

Reported remaining activity at 1 µM for CN1C(=O)/C(=C\c2ccc(-c3cccc([N+](=O)[O-])c3)o2)SC1=S [Compound 115] was 108

Reported remaining activity at 1 µM for Cc1cc(OC(=O)Cn2c(=O)sc3ccccc32)ccc1Cl [Compound 103] was 100

Reported remaining activity at 1 µM for O=C(NC(C(Cl)(Cl)Cl)S(=O)(=O)c1ccccc1)c1ccc(Cl)cc1Cl (stereo not drawn) [Compound 88] was 118

Reported remaining activity at 1 µM for O=C1c2ccccc2-c2nc3nonc3nc21 [Compound 91] was 62

====

Kindly state remaining activity at 1 µM for each of the entries shown.
ASSAY TARGET: Hmdm2 (Homo sapiens)
PROTOCOL NOTES: Selectivity (% A in 1 μM), ubiquitin ligase activity of Hmdm2
Type: biochemical
CONDITIONS: read-out: Selectivity (% A* in 1 μM) Hmdm2
Write down the numeric answer in % and omit the unit.

// assay Hmdm2 (Homo sapiens), entry `O=C1C(=Cc2ccc(-c3ccc(Br)cc3)o2)C(=O)c2ccccc21` , remaining activity at 1 µM value = 111

// assay Hmdm2 (Homo sapiens), entry `O=c1oc2ccccc2c(O)c1C(=S)Nc1ccccc1` , remaining activity at 1 µM value = 90

// assay Hmdm2 (Homo sapiens), entry `O=C1C=CC(=O)N1c1ccc(OC(F)(F)C(F)F)c(N2C(=O)C=CC2=O)c1` , remaining activity at 1 µM value = 132

// assay Hmdm2 (Homo sapiens), entry `O=C1C=CC(=O)N1c1ccccc1Cl` , remaining activity at 1 µM value = 101

// assay Hmdm2 (Homo sapiens), entry `CN(C)c1ccc(/C=C2\C(=O)N(c3ccc([N+](=O)[O-])cc3)N=C2N2CCOCC2)cc1` , remaining activity at 1 µM value = 111

// assay Hmdm2 (Homo sapiens), entry CCCCOc1ccc(NC(=S)N2CCn3c4c(c(=O)c5cc(C)ccc53)CCC42)cc1 (stereo not shown) , remaining activity at 1 µM value = 73

// assay Hmdm2 (Homo sapiens), entry `O=C1NC(=O)C(=Cc2ccc(-c3cc(Cl)ccc3Cl)o2)C(=O)N1` , remaining activity at 1 µM value = 105

// assay Hmdm2 (Homo sapiens), entry `S=C(c1ccc(-c2cc(Cl)ccc2Cl)o1)N1CCCCC1` , remaining activity at 1 µM value = 101

// assay Hmdm2 (Homo sapiens), entry `CCCCCCOc1ccc(C=C2C(=O)NC(=S)NC2=O)cc1` , remaining activity at 1 µM value = 90

// assay Hmdm2 (Homo sapiens), entry `Cc1c(C(=O)/C=C/c2cccs2)c2cc(O)ccc2n1C` , remaining activity at 1 µM value = 110

// assay Hmdm2 (Homo sapiens), entry `Cc1cc(O)c(C(=O)/C=C/c2cccc(I)c2)c(=O)o1` , remaining activity at 1 µM value = 119

// assay Hmdm2 (Homo sapiens), entry `O=C1C=CC(=O)N1c1ccc(Cl)cc1` , remaining activity at 1 µM value = 100

// assay Hmdm2 (Homo sapiens), entry `CC(C)(C)c1ccc(O)c(/N=C/C=C/c2cccc([N+](=O)[O-])c2)c1` , remaining activity at 1 µM value = 112

// assay Hmdm2 (Homo sapiens), entry `Cc1ccc(/N=C/c2cccc(O)c2O)cc1C` , remaining activity at 1 µM value = 73

// assay Hmdm2 (Homo sapiens), entry `C=CCN1C(=O)/C(=C/c2c3ccccc3cc3ccccc23)SC1=S` , remaining activity at 1 µM value = 106

// assay Hmdm2 (Homo sapiens), entry `O=C(O)c1ccc(-c2ccc(/C=c3\sc4nc5ccccc5n4c3=O)o2)cc1` , remaining activity at 1 µM value = 90

// assay Hmdm2 (Homo sapiens), entry `COc1ccc(NC(=O)c2cc3cccc(N)c3cc2O)cc1` , remaining activity at 1 µM value = 85

// assay Hmdm2 (Homo sapiens), entry `O=[N+]([O-])c1ccc(CN2CCN(c3cccc(Cl)c3)CC2)o1` , remaining activity at 1 µM value = 95

// assay Hmdm2 (Homo sapiens), entry CN(C)c1ccc(/C=C2\SC(=S)N(C3CCS(=O)(=O)C3)C2=O)cc1 (stereo not shown) , remaining activity at 1 µM value = 51

Reference source: patent US7659277B2
